System: MelJuSo cells
testDescription: Cell viability (CellTiter-Glo ATP content) in MelJuSo cells
Assay type: cell-based
conditionNotes: Homo sapiens, MEL-JUSO, 72 hours treatment, cell survival by CellTiter-Glo, 2% fetal bovine serum
Protocol: Logarithmically growing A549, LOX and MelJuSo cells (ATCC) were plated in antibiotic-free RPMI medium (Coming) supplemented with 2% fetal bovine serum (Gemini Bio-products) at a density of 5,000 cells per well in clear-bottom 96-well plates. […] Signal intensity was measured on a Glomax™ 96 Microplate Luminometer (Promega) and percent cell survival was calculated based on the reading of vehicle control cells set as 100%.
As shown below, each of these compounds has a reported IC50 value.
readout: IC50

[[record]]
compound = "CCCCC1C(c2ccc(S(C)(=O)=O)cc2)=NN(c2ccc(F)cc2F)C1(C)C(=O)NCCCC(C)(C)CO (centres unmarked) [Compound 113]"
testedtarget = "MelJuSo cells"
reading = "> 2 µM"

[[record]]
compound = "CCCCC1C(c2ccc(F)cc2)=NN(c2ccccc2)C1(C)C(=O)NCC1CCCCO1 (centres unmarked) [Compound 68]"
testedtarget = "MelJuSo cells"
reading = "0.5 to 1 µM"

[[record]]
compound = "COCCNC(=O)C1(C)C(c2ccsc2)C(c2ccc(F)cc2)=NN1c1ccc(F)cc1F (centres unmarked) [Compound 86]"
testedtarget = "MelJuSo cells"
reading = "< 0.25 µM"

[[record]]
compound = "CCCCC1C(c2ccc(F)cc2)=NN(c2ccccc2)C1(C)C(=O)N[C@H](C)c1ccccc1 (some centres unmarked) [Compound 43]"
testedtarget = "MelJuSo cells"
reading = "> 2 µM"

[[record]]
compound = "CCCCC1C(c2ccc(F)cc2)=NN(c2cccc(F)c2)C1(C)C(=O)NCCCCC(C)(C)O (centres unmarked) [Compound 7]"
testedtarget = "MelJuSo cells"
reading = "0.5 to 1 µM"

[[record]]
compound = "CCCCC1C(c2ccc(F)cc2)=NN(c2ccc(F)cc2F)C1(C)C(=O)NCCCCOC (centres unmarked) [Compound 25]"
testedtarget = "MelJuSo cells"
reading = "1 to 2 µM"

[[record]]
compound = "COCCNC(=O)C1(C)C(c2ccco2)C(c2ccc(F)cc2F)=NN1c1ccc(F)cc1F (centres unmarked) [Compound 116]"
testedtarget = "MelJuSo cells"
reading = "< 0.25 µM"

[[record]]
compound = "CCCCC1C(c2ccc(F)cc2)=NN(c2ccc(C(F)(F)F)cc2)C1(C)C(=O)NCCCC(C)(C)CO (centres unmarked) [Compound 28]"
testedtarget = "MelJuSo cells"
reading = "1 to 2 µM"


* * *

As shown below, each of these compounds has a reported IC50 value.
Tested on: A549 cells
testDescription: Cell viability (CellTiter-Glo ATP content) in A549 cells
Type: cell-based
conditionNotes: Homo sapiens, A549, 72 h, 72 hours treatment, cell survival by CellTiter-Glo, 2% fetal bovine serum
readout: IC50

[[record]]
compound = "CCCCC1C(c2ccc(F)cc2)=NN(c2ccccc2)C1(C)C(=O)NCc1cccc(OC)c1OC (centres unmarked) [Compound 45]"
reading = "> 2 µM"

[[record]]
compound = "CCCCC1C(c2ccc(F)cc2F)=NN(c2ccc(F)cc2F)C1(C)C(=O)NCCCC(C)(C)CO (centres unmarked) [Compound 89]"
reading = "1 to 2 µM"

[[record]]
compound = "CC1(C(=O)NCC(=O)NCCO)C(c2cccs2)C(c2ccc(F)cc2)=NN1c1ccc(F)cc1F (centres unmarked) [Compound 112]"
reading = "> 2 µM"

[[record]]
compound = "COC(=O)[C@H](C)NC(=O)C1(C)C(c2ccoc2)C(c2ccc(F)cc2F)=NN1c1ccc(F)cc1F (some centres unmarked) [Compound 132]"
reading = "> 2 µM"

[[record]]
compound = "CCCCC1C(c2ccc(Cl)cc2F)=NN(c2ccccc2)C1(C)C(=O)NCCCC(C)(C)CO (centres unmarked) [Compound 53]"
reading = "> 2 µM"

[[record]]
compound = "CCCCC1C(c2ccc(F)cc2)=NN(c2ccccc2)C1(C)C(=O)NCCF (centres unmarked) [Compound 70]"
reading = "> 2 µM"

[[record]]
compound = "CCCCC1C(c2ccc(F)cc2)=NN(c2ccc(C(F)(F)F)cc2)C1(C)C(=O)NCCCC(C)(C)CO (centres unmarked) [Compound 28]"
reading = "> 2 µM"

[[record]]
compound = "CC(C)(CO)CCCNC(=O)C1(C)C(c2ccsc2)C(c2ccc(F)cc2)=NN1c1ccc(F)cc1F (centres unmarked) [Compound 85]"
reading = "0.25 to 0.5 µM"


* * *

Tested on: MelJuSo cells
testDescription: Cell viability (CellTiter-Glo ATP content) in MelJuSo cells
Type: cell-based
conditionNotes: Homo sapiens, MEL-JUSO, 72 hours treatment, cell survival by CellTiter-Glo, 2% fetal bovine serum
readout: IC50

[[record]]
molecule = "CC1(C(=O)NCC(=O)N2CCS(=O)(=O)CC2)C(c2cccs2)C(c2ccc(F)cc2)=NN1c1ccc(F)cc1F (stereo not drawn)"
testedtarget = "MelJuSo cells"
reading = "> 2 µM"

[[record]]
molecule = "CC1(C(=O)NCCN2CCOCC2)C(c2cccs2)C(c2ccc(F)cc2)=NN1c1ccc(F)cc1F (stereo not drawn)"
testedtarget = "MelJuSo cells"
reading = "> 2 µM"

[[record]]
molecule = "CCCCC1C(c2ccc(F)cc2)=NN(c2ccc(F)cc2)C1(C)C(=O)NCCCOC (stereo not drawn)"
testedtarget = "MelJuSo cells"
reading = "1 to 2 µM"

[[record]]
molecule = "CCCCC1C(c2ccc(F)cc2)=NN(c2ccccc2)C1(C)C(=O)NCCC(C)N(C)C (stereo not drawn)"
testedtarget = "MelJuSo cells"
reading = "> 2 µM"

[[record]]
molecule = "CCCCC1C(c2ccc(F)cc2)=NN(c2ccc(F)cc2F)C1(C)C(=O)NCCCC(C)(C)CO (stereo not drawn)"
testedtarget = "MelJuSo cells"
reading = "0.5 to 1 µM"

[[record]]
molecule = "CCCCC1C(c2ccc(F)cc2)=NN(c2ccc(Cl)cc2C)C1(C)C(=O)NCCCC(C)(C)CO (stereo not drawn)"
testedtarget = "MelJuSo cells"
reading = "> 2 µM"

[[record]]
molecule = "CC(C)(CO)CCCNC(=O)C1(C)C(c2ccc(Cl)s2)C(c2ccc(F)cc2)=NN1c1ccc(F)cc1F (stereo not drawn)"
testedtarget = "MelJuSo cells"
reading = "0.5 to 1 µM"

[[record]]
molecule = "CC1(C(=O)NCC(=O)NCCO)C(c2cccs2)C(c2ccc(F)cc2)=NN1c1ccc(F)cc1F (stereo not drawn)"
testedtarget = "MelJuSo cells"
reading = "> 2 µM"

[[record]]
molecule = "CC(C)(C)OC(=O)N1CCOC(CNC(=O)C2(C)C(c3ccc(Cl)o3)C(c3ccc(F)cc3F)=NN2c2ccc(F)cc2F)C1 (stereo not drawn)"
testedtarget = "MelJuSo cells"
reading = "> 2 µM"

[[record]]
molecule = "CCCCC1C(c2ccc(F)cc2)=NN(c2ccccc2)C1(C)C(=O)NCc1ccc(Cl)c(Cl)c1 (stereo not drawn)"
testedtarget = "MelJuSo cells"
reading = "> 2 µM"

[[record]]
molecule = "CCCCC1C(c2ccc(S(C)(=O)=O)cc2)=NN(c2ccc(F)cc2F)C1(C)C(=O)NCCOC (stereo not drawn)"
testedtarget = "MelJuSo cells"
reading = "> 2 µM"

[[record]]
molecule = "CC(C)(O)CNC(=O)CNC(=O)C1(C)C(c2cccs2)C(c2ccc(F)cc2)=NN1c1ccc(F)cc1F (stereo not drawn)"
testedtarget = "MelJuSo cells"
reading = "0.5 to 1 µM"

[[record]]
molecule = "CCCCC1C(c2ccc(F)cc2)=NN(c2ccccc2)C1(C)C(=O)N(C)Cc1cc(OC)cc(OC)c1 (stereo not drawn)"
testedtarget = "MelJuSo cells"
reading = "> 2 µM"

[[record]]
molecule = "COCCNC(=O)C1(C)C(c2ccoc2)C(c2ccc(F)cc2F)=NN1c1ccc(F)cc1F (stereo not drawn)"
testedtarget = "MelJuSo cells"
reading = "0.5 to 1 µM"

[[record]]
molecule = "CCCCC1C(c2ccc(F)cc2)=NN(c2ccc(F)cc2Cl)C1(C)C(=O)NCCCC(C)(C)CO (stereo not drawn)"
testedtarget = "MelJuSo cells"
reading = "> 2 µM"


* * *

Test system: A549 cells
testDescription: Cell viability (CellTiter-Glo ATP content) in A549 cells
Format: cell-based
conditionNotes: Homo sapiens, A549, 72 h, 72 hours treatment, cell survival by CellTiter-Glo, 2% fetal bovine serum
Description: Logarithmically growing A549, LOX and MelJuSo cells (ATCC) were plated in antibiotic-free RPMI medium (Coming) supplemented with 2% fetal bovine serum (Gemini Bio-products) at a density of 5,000 cells per well in clear-bottom 96-well plates. […] Signal intensity was measured on a Glomax™ 96 Microplate Luminometer (Promega) and percent cell survival was calculated based on the reading of vehicle control cells set as 100%.
As shown below, each of these compounds has a reported IC50 value.
readout: IC50

[[record]]
compound = "CCCCC1C(c2c(F)cc(F)cc2F)=NN(c2ccc(F)cc2F)C1(C)C(=O)NCC(=O)OC (stereo not drawn) [Compound 98]"
readout = "IC50"
reading = "> 2 µM"

[[record]]
compound = "CCCCC1C(c2ccc(F)cc2)=NN(c2ccccc2)C1(C)C(=O)NCC(C)(C)C (stereo not drawn) [Compound 72]"
readout = "IC50"
reading = "> 2 µM"

[[record]]
compound = "COCCNC(=O)C1(C)C(c2ccc(Cl)o2)C(c2ccc(F)cc2F)=NN1c1ccc(F)cc1F (stereo not drawn) [Compound 120]"
readout = "IC50"
reading = "< 0.25 µM"

[[record]]
compound = "CCCCC1C(c2ccc(F)cc2)=NN(c2ccccc2)C1(C)C(=O)NCC(C)CN(C)C (stereo not drawn) [Compound 77]"
readout = "IC50"
reading = "0.25 to 0.5 µM"

[[record]]
compound = "CN(C)CCNC(=O)CNC(=O)C1(C)C(c2cccs2)C(c2ccc(F)cc2)=NN1c1ccc(F)cc1F (stereo not drawn) [Compound 107]"
readout = "IC50"
reading = "> 2 µM"

[[record]]
compound = "CCCCC1C(c2ccc(F)cc2)=NN(c2ccc(Cl)cc2C)C1(C)C(=O)NCCCOC (stereo not drawn) [Compound 30]"
readout = "IC50"
reading = "> 2 µM"

